Hey, just so you know, these numbers are from patent US12617773B2.

Field: pIC50. Provide a value for each of the compounds that follow.
Target: human CCR6 (Homo sapiens, UniProt P51684)
Construct: expressed in transfected cells; host or cells: HEK-293
Test: FLIPR assay (inhibition of CCL20-induced calcium signal)
Format: cell-based
Conditions: HEK-293 cells expressing human CCR6; mean values where determined several times; read-out: FLIPR IC50
Numbers only, as −log10 of the molar value.

Recorded results for 2 compounds are shown here.
COC[C@@H]1CN(c2cncc([C@@](O)(c3ccc(C(C)C)cc3)C3(C)CN(C)C3)c2)CCO1 :: 6.66
CC(C)c1ccc([C@](O)(c2cncc(C#CC(C)(O)c3ccn(C)n3)c2)C2(C)CN(C)C2)cc1 (single isomer, unassigned) [Example 405] :: 6.99

For each of the compounds below, note its pIC50.
1. COCCS(=O)(=O)N1CCC(c2noc(-c3cncc([C@@](O)(c4ccc(C(C)C)cc4)C4(C)CN(C)C4)c3)n2)CC1
2. CC(C)c1ccc([C@](O)(c2cncc(CCC3(O)CCN(C(=O)OC(C)(C)C)C3)c2)C2(C)CN(C)C2)cc1 (stereo partly shown)

[7.17, 7.05]

###

Record form. Attribute: IC50. Fill in for each entry.
Molecular target: human CCR6 (Homo sapiens, UniProt P51684)
Construct: expressed in transfected cells; host or cells: HEK-293
Sequence (P51684 1-374): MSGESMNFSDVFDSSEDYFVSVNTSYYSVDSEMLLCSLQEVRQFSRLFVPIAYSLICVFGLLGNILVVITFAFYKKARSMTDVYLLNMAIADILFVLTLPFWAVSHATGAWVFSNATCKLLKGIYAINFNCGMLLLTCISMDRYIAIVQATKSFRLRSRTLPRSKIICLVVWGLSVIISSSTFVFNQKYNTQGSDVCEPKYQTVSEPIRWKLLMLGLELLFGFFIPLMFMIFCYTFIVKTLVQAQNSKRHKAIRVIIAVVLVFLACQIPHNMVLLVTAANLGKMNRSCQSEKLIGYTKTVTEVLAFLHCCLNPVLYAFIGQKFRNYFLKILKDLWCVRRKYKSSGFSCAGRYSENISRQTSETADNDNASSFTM
Experiment: FLIPR assay (inhibition of CCL20-induced calcium signal)
Assay type: cell-based
Conditions: HEK-293 cells expressing human CCR6; mean values where determined several times; read-out: FLIPR IC50
One number for each entry, in nM.

Dear colleague, could you please provide IC50 for the compounds listed below?
1. CC(C)c1ccc([C@](O)(c2cncc(-c3nc(CC4(O)CCOCC4)no3)c2)C2(C)CN(C)C2)cc1 [Example 524]
2. CC(C)c1ccc([C@](O)(c2cncc(C#CC3(O)CN(C(=O)OC(C)(C)C)C3)c2)C2(C)CN(C)C2)cc1 [Example 20]
3. CC(C)c1ccc([C@](O)(c2cncc(-c3noc(C4CC(O)C4)n3)c2)C2(C)CN(C)C2)cc1 (stereo partly shown) [Example 123]
4. CC(C)c1ccc(C(O)(c2ccnc(N3CCOCC3)c2)C2(C)CN(C)C2)cc1 (stereo not shown) [Example 276]

178
23
46.9
413

###

Molecular target: human CCR6 (Homo sapiens, UniProt P51684)
Construct: expressed in transfected cells; host or cells: HEK-293
Experiment: FLIPR assay (inhibition of CCL20-induced calcium signal)
Assay type: cell-based
Conditions: HEK-293 cells expressing human CCR6; mean values where determined several times; read-out: FLIPR IC50
Task for the reader: assign each of the following compounds its reported IC50.
One number for each entry, in nM.

CC(C)c1ccc([C@](O)(c2cncc(OCCOCc3ccccc3)c2)C2(C)CN(C)C2)cc1 :: 15.5
CC(C)c1ccc([C@](O)(c2cncc(CCC3(O)CCC3)c2)C2(C)CN(C)C2)cc1 :: 61
CC(C)c1ccc([C@](O)(c2cncc(-c3ncon3)c2)C2(C)CN(C)C2)cc1 :: 58.7
Cc1nn(C)cc1C(O)C#Cc1cncc([C@@](O)(c2ccc(C(C)C)cc2)C2(C)CN(C)C2)c1 (stereo partly drawn) :: 85.5

Quick one: give me IC50 for each item below, same order please.
1. CC(C)c1ccc([C@](O)(c2cncc(N3CC(F)(F)OC(F)(F)C3)c2)C2(C)CN(C)C2)cc1
2. COc1cncc([C@@](O)(c2ccc(C(C)C)cc2)C2(C)CN(C)C2)c1
3. CC(C)c1ccc([C@](O)(c2cncc(N3C[C@H](C(C)(C)C)OC3=O)c2)C2(C)CN(C)C2)cc1 (single isomer, unassigned)

1: 23.4; 2: 87.4; 3: 66.9

###

Molecular target: human CCR6 (Homo sapiens, UniProt P51684)
Construct: expressed in transfected cells; host or cells: HEK-293
Experiment: FLIPR assay (inhibition of CCL20-induced calcium signal)
Type: cell-based
Details: HEK-293 cells expressing human CCR6; mean values where determined several times; read-out: FLIPR IC50
metric: IC50 (nM)
One number for each entry, in nM.

Look over these answered cases.
CN1CC(C)([C@](O)(c2ccc(C3(C(F)(F)F)CC3)cc2)c2cncc(-c3noc(C(C)(C)O)n3)c2)C1 :: 47
CC(C)c1ccc([C@](O)(c2cncc(-c3noc(CN4CC(=O)NC4=O)n3)c2)C2(C)CN(C)C2)cc1 :: 593
CC(C)c1ccc([C@](O)(c2cncc(C#CC(C)(O)C(F)(F)F)c2)C2(C)CN(C)C2)cc1 (some centres unmarked) :: 14.8
CC(C)c1ccc([C@](O)(c2cncc(N3CCC(O)(C(F)(F)F)C3)c2)C2(C)CN(C)C2)cc1 (some centres unmarked) :: 64.5
CC(C)c1ccc([C@](O)(c2cncc(C(=O)NC3CCCC3)c2)C2(C)CN(C)C2)cc1 :: 101
CC(=O)N1CCC(c2nc(-c3cncc([C@@](O)(c4ccc(OC(F)(F)F)cc4)C4(C)CN(C)C4)c3)no2)CC1 :: 117
Cc1cncc(C(O)(c2ccc(C(C)C)cc2)C2(C)CN(C)C2)c1 (centres unmarked) :: 78
COCCc1nc(-c2cncc([C@@](O)(c3ccc(C(C)C)cc3)C3(C)CN(C)C3)c2)no1 :: 42.2
CC(C)c1ccc([C@](O)(c2cncc(CCOCc3ccccc3)c2)C2(C)CN(C)C2)cc1 :: 83.3
CC(C)c1ccc([C@](O)(c2cncc(-c3noc(CN4C(=O)CN(C)C4=O)n3)c2)C2(C)CN(C)C2)cc1 :: 248

Dear colleague, could you send me IC50 for each of the items below? Thanks.
1. [2H]C([2H])([2H])C(=O)NCc1nc(-c2cncc([C@@](O)(c3ccc(C(C)C)cc3)C3(C)CN(C)C3)c2)no1
2. CC(C)N1CC(C)([C@](O)(c2ccc(OC(F)(F)F)cc2)c2cncc(N3CCCC3)c2)C1
3. CC(=O)N1CCC(c2ccnc(-c3cncc([C@@](O)(c4ccc(C(C)C)cc4)C4(C)CN(C)C4)c3)n2)CC1
4. Cc1cc(C(C)(O)C#Cc2cncc([C@@](O)(c3ccc(C(C)C)cc3)C3(C)CN(C)C3)c2)nc(C)n1 (single isomer, unassigned) [Example 625]
5. CC(C)c1ccc([C@](O)(c2cncc(N3CC[C@@](C)(CO)C3)c2)C2(C)CN(C)C2)cc1
6. CC(C)c1ccc([C@](O)(c2cncc(-c3noc(CN4CCN(C5CC5)C4=O)n3)c2)C2(C)CN(C)C2)cc1

[207, 33.3, 145, 107, 44.3, 143]

###

Answer each item with its documented pIC50.
Molecular target: human CCR6 (Homo sapiens, UniProt P51684)
Construct: expressed in transfected cells; host or cells: HEK-293
Experiment: FLIPR assay (inhibition of CCL20-induced calcium signal)
Type: cell-based
Conditions: HEK-293 cells expressing human CCR6; mean values where determined several times; read-out: FLIPR IC50
One number for each entry, as −log10 of the molar value.

Worked set:
[2H]C([2H])([2H])C(=O)NCCc1nc(-c2cncc([C@@](O)(c3ccc(C(C)C)cc3)C3(C)CN(C)C3)c2)no1 :: 6.17
CC(C)c1ccc([C@](O)(c2cncc(-c3noc(C(C)(F)F)n3)c2)C2(C)CN(C)C2)cc1 :: 7.39
CC(C)c1ccc([C@](O)(c2cncc(CCC(C)(O)c3ncccn3)c2)C2(C)CN(C)C2)cc1 (stereo partly shown) :: 6.95

Turning to the following compound.
pIC50 of "CC(C)c1ccc([C@](O)(c2cncc(-c3noc(C(F)(F)CO)n3)c2)C2(C)CN(C)C2)cc1" on human CCR6 (Homo sapiens, UniProt P51684)?
7.44

###

Biological target: human CCR6 (Homo sapiens, UniProt P51684)
Construct: expressed in transfected cells; host or cells: HEK-293
Sequence (P51684 1-374): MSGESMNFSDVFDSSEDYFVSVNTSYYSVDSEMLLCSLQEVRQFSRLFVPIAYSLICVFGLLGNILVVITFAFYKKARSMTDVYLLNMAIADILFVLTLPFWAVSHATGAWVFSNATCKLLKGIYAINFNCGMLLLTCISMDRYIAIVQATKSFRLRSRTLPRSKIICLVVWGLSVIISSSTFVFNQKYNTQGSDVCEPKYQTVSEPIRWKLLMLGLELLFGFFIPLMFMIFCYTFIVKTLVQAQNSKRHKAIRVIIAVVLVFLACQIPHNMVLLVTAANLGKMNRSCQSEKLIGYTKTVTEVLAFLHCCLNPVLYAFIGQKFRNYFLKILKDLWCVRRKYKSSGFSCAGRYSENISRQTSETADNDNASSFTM
Test: FLIPR assay (inhibition of CCL20-induced calcium signal)
Type: cell-based
Details: HEK-293 cells expressing human CCR6; mean values where determined several times; read-out: FLIPR IC50
Protocol: FLIPR assay: The bioactivity of compounds is tested in a fluorometric imaging plate reader (FLIPR: Molecular Devices) using engineered HEK-293 cells expressing the human CCR6 (GenBank: AY242126). […] Changes in fluorescence are monitored before and after addition of the test compounds and agonist. […] The calculated IC50 values may fluctuate depending on the daily assay performance. […]
metric: pIC50
Numbers only, as −log10 of the molar value.

Take a look at these entries with their results.
CC(C)c1ccc([C@](O)(c2cncc(-c3noc(C4(C)CC(=O)N(C)C4)n3)c2)C2(C)CN(C)C2)cc1 (single isomer, unassigned) [Example 365] :: 6.83
CC(=O)N1CCC(c2nc(-c3cncc(C(O)(c4ccc(C5(C)CC5)cc4)C4(C)CN(C)C4)c3)no2)CC1 (stereo not drawn) [Example 566] :: 6.68

Would you mind telling me what pIC50 value was observed for COc1ccccc1C(C)(O)C#Cc1cncc([C@@](O)(c2ccc(C(C)C)cc2)C2(C)CN(C)C2)c1 (stereo partly drawn) [Example 34] ?
7.68
